Record form. Attribute: TGI. Fill in for each entry.
- System: HCT-15 colon
- experiment: NCI tumour cell line growth inhibition, 48 h

Provide the documented TGI with HCT-15 colon as the system for `N=c1c2c(=S)n(-c3ccccc3)c(=S)n(-c3ccccc3)c2nc(SCCCN2CCN(c3cccc(Cl)c3)CC2)n1-c1ccccc1`
> 100 µM

Requested read-out TGI, target or system HCT-15 colon, entry `Cc1ccc(C(=O)Nc2ccc(S(=O)(=O)O)c3cc(S(=O)(=O)O)cc(S(=O)(=O)O)c23)cc1NC(=S)Nc1cc(C(=O)Nc2ccc(S(=O)(=O)O)c3cc(S(=O)(=O)O)cc(S(=O)(=O)O)c23)ccc1C`
> 75 µM

Item: `CCN(CC)CCN1C(=O)c2c(c(-c3ccccc3)c3ccccc3c2-c2ccccc2)C1=O` Test system: HCT-15 colon Read-out: TGI Value: ?
> 100 µM

API: value(readout= TGI, system= HCT-15 colon, query= `CCOC(=O)Cc1csc2[n+]1C(=O)/C(=C\c1cccc(Cl)c1Cl)S2` )
31.9 µM

Item `Cc1ccc(S(=O)(=O)N2C[C@](O)(c3ccccc3)[C@H]2C)cc1` with HCT-15 colon - TGI?
> 100 µM

Request - read-out TGI | tested on HCT-15 colon | compound CN1CCCCC(C#N)(c2ccccc2)CC1 (centres undefined)
> 100 µM

Find TGI (HCT-15 colon) for the entry `CS(=O)(=O)CCNCc1ccc(-c2ccc3ncnc(Nc4ccc(OCc5cccc(F)c5)c(C(F)(F)F)c4)c3c2)o1`
9.12 µM

Identify the measured TGI of `N#CC(C#N)N=Nc1ccc(Br)cc1` for HCT-15 colon.
15.9 µM

Checklist item: TGI tested on HCT-15 colon, entry COc1cc(C2SC(N)=Nc3c2c(C)nn3C(=O)c2ccccc2O)ccc1O (centres undefined) , value?
> 10 µM

---

Answer each item with its documented TGI.
- Tested on: OVCAR-5 ovarian
- experiment: NCI tumour cell line growth inhibition, 48 h

Query TGI on OVCAR-5 ovarian for `NCCN.NCCN.O=C[O-].O=C[O-].[Co+3].[O-][Cl+3]([O-])([O-])[O-]`
> 100 µM

Could you share what TGI was measured for `O=S(=O)(N/N=C/c1cccc(Cl)c1Cl)c1ccccc1` , tested on OVCAR-5 ovarian?
> 100 µM

// map `CC(C)CC(=O)Nc1n[nH]c2c1CN(C(=O)C1CCN(C)CC1)C2(C)C` to recorded TGI (system: OVCAR-5 ovarian)
> 10 µM

Could you share what TGI was measured for `Cc1cc(N=Nc2c(O)ccc3ccccc23)ccc1N=Nc1cccc([N+](C)(C)C)c1` , tested on OVCAR-5 ovarian?
60.8 µM

Any idea what TGI came out for `O=C(O)CS` on OVCAR-5 ovarian?
> 100 µM

Checklist item: TGI tested on OVCAR-5 ovarian, entry `CC(C)OP(=O)(OC(C)C)/C(C#N)=C/c1ccco1` , value?
> 100 µM

API: value(readout=TGI, system=OVCAR-5 ovarian) for record COc1cc(C2SC(N)=Nc3c2c(C)nn3C(=O)c2ccccc2O)ccc1O (stereo not given)
> 10 µM

Please state recorded TGI (tested on OVCAR-5 ovarian) of `N#CSc1c[nH]c2ccc(/C=C/C(=O)/C=C(/C=C/c3ccc4[nH]cc(SC#N)c4c3)OB(F)F)cc12`
8.68 µM

Notebook entry, OVCAR-5 ovarian assay: TGI of `O=C(N/N=C/c1ccc([N+](=O)[O-])o1)c1ccc(C(=O)N/N=C/c2ccc([N+](=O)[O-])o2)cc1` = ?
> 100 µM

Identify the measured TGI of CN(C)CC1COC2Cc3ccccc3C1O2 (stereo not given) for OVCAR-5 ovarian.
> 100 µM

---

Please go through the items and note down their TGI.
- Tested on: OVCAR-3 ovarian
- experiment: NCI tumour cell line growth inhibition, 48 h
Number in µM, nothing else.

Form field - read-out: TGI; system: OVCAR-3 ovarian; submitted item: `CN(C)C/C=C/C(=O)Nc1cc2c(Nc3ccc(F)c(Cl)c3F)ncnc2cc1OCCOC(F)F`
1.73

Report TGI for `CCCCCCCCCc1cc[n+](CC(=O)c2ccc([N+](=O)[O-])cc2)cc1` tested on OVCAR-3 ovarian.
2.28

Please state recorded TGI (tested on OVCAR-3 ovarian) of CCN(CC)c1ccc2c(c1)Oc1nc(N)c(C#N)c(N)c1C2Sc1ccc(OC)cc1 (stereo not given)
3.1

// map `O=c1cc(-c2ccccc2)oc2cc(O)cc(O)c12` to recorded TGI (system: OVCAR-3 ovarian)
82.1

---

So I've got a bunch of compounds here, and I need their GI50 values.
- Test system: HCT-15 colon
- experiment: NCI tumour cell line growth inhibition, 48 h

Value lookup for GI50; key = CC(=O)N1c2ccccc2NC2=C(C(=O)N(Cc3ccccc3)C2(C)C)C1c1ccco1 (configuration not stated)
1.2 µM

Using the record for OC(COc1ccc(F)cc1)Cn1cnc2c(Cl)ncnc21 (configuration not stated) , report its GI50.
32.4 µM

// query GI50 value for entry `O=C(O)c1ccc(S(=O)(=O)Nc2ccc3oc4c(c3c2)C(=O)CCC4)cc1`
> 100 µM

Can you look up the measured GI50 of `CCCCCCCCCc1cc[n+](CC(=O)c2ccc([N+](=O)[O-])cc2)cc1` for me?
1.19 µM

Reported GI50, compound Nc1ccccc1NC(=O)c1ccc(CCCC(=O)Nc2ccc(C3CC3N)cc2)cc1 (configuration not stated) : ____
18.8 µM

Which measured GI50 value corresponds to Cc1cc(O)c(C2=NN(c3ccc(S(N)(=O)=O)cc3)C(c3ccc(N(C)C)cc3)C2)c(C)c1Cl (configuration not stated) ?
14.2 µM

Query: GI50; subject: `CN1CCN(c2ccc(Nc3nc(N)c(C(=O)c4ccc5c(c4)OCCO5)s3)cc2)CC1`
4.08 µM

---

- Tested on: NCI-H226 lung
- experiment: NCI tumour cell line growth inhibition, 48 h
Where a SMILES comes first, the peptide text is derived from it. [ ]: non-standard residue; d: D form. The star is where a group is joined. Tyr(3-Br) = N[C@@H](Cc1ccc(O)c(Br)c1)C(=O)O; Boc = CC(C)(C)OC(=O)*
readoutKind: TGI

May I ask what TGI has been recorded for C=C1c2[nH]c3ccccc3c2C2C(CC)C1CCN2C (stereo not given) ?
> 100 µM

Data request, read-out TGI, for CC(=O)N1c2ccccc2NC2=C(C(=O)N(Cc3ccccc3)C2(C)C)C1c1ccco1 (stereo not given)
> 25 µM

Give the measured TGI of `Brc1c(C#CCC(c2ccccc2)(c2ccccc2)c2ccccc2)ccc(C#CCC(c2ccccc2)(c2ccccc2)c2ccccc2)c1Br` .
> 100 µM

Entry COc1ccc(C2Oc3cc(OC)c(O)c(C)c3[C@H]2C)cc1 (stereo not given in full) : reported TGI = ?
> 100 µM

Data request, read-out TGI, for O=C(O)/C(Cl)=C(\Cl)C(=O)NC1C2CC3CC(C2)CC1C3 (stereo not given)
> 100 µM

So what's the measured TGI for this one? `CC(C)CC(=O)Nc1n[nH]c2c1CN(C(=O)C1CCN(C)CC1)C2(C)C`
> 10 µM

Which TGI is reported for this molecule? COC(=O)[C@H](Cc1ccc(O)c(Br)c1)NC(=O)[C@H](Cc1ccc(O)cc1)NC(=O)OC(C)(C)C (Boc-Tyr-[Tyr(3-Br)]-OMe)
> 100 µM

Could you share which TGI value was measured for `O=C(O)c1cc2ccccc2oc1=O` ?
> 100 µM

TGI for `Cc1ccc2c(n1)C(=O)C=CC2=O` ?
42.8 µM

Request the reported TGI associated with C=C(C)CC1(O)C(=O)C(OCC)=C1OCC (stereo not given)
> 100 µM

---

- System: K-562 leukemia
- experiment: NCI tumour cell line growth inhibition, 48 h
readoutKind: TGI

Find the recorded TGI belonging to `N#CC(C#N)=C(N)/C(C#N)=C/c1ccc2ccccc2n1` and report it.
> 100 µM

Name the recorded TGI for `CCN(CC)CCCn1c(=O)c2ccccc2n2c3c(=O)n(C)c(=O)n(C)c3nc12` .
33.6 µM

Using the record for COC(C(=O)C(O)C(C)O)C1CC2C=C3C=C(OC4CC(OC5CC(O)C(OC)C(C)O5)C(OC(C)=O)C(C)O4)C(C)C(=O)C3=C(O)C2=C(O)C1OC1CC(OC2CC(OC3CC(C)(O)C(OC(=O)C(C)C)C(C)O3)C(O)C(C)O2)C(O)C(C)O1 (stereo not given) , report its TGI.
< 0.01 µM

For the compound COC(=O)c1cccc(N[C@@H]2c3cc4c(cc3C(c3cc(OC)c(O)c(OC)c3)[C@H]3C(=O)OCC32)OCO4)c1 (stereo not given in full) , what TGI is on record?
20.6 µM

Tell me the measured TGI of `Cc1cc(-c2nc3ccccc3s2)ccc1N` , please.
> 86 µM

Every entry's value here was drawn from PubChem BioAssay (NCI).
